Listed next: entries and their corresponding IC50.
Test system: CEM cells HIV-1 protection, formazan growth assay
Assay: NCI AIDS Antiviral Assay
Conditions: measured here: growth of uninfected CEM cells

molecule	experimental.target	IC50
Cn1c2ccc3cc2c(=S)c2cc(ccc21)OCCOCCOCCOCCOCCOCCO3	CEM cells HIV-1 protection, formazan growth assay	186 µM
C1=C\C=C\C2OC2/C=C/1 (stereo not drawn)	CEM cells HIV-1 protection, formazan growth assay	112 µM
CC1NOC(=O)C1N=Nc1ccc(Cl)cc1Cl (stereo not drawn)	CEM cells HIV-1 protection, formazan growth assay	> 36.3 µM

CEM cells HIV-1 protection, formazan growth assay data for CC1(C)OC2OC(C(O)COC(=O)c3ccccc3)C(Cl)C2O1 (stereo not drawn) ; its IC50: 151 µM
